# Lookup of reported EC50 keyed by entry
# System: CEM cells HIV-1 protection, formazan growth assay
# procedure details: NCI AIDS Antiviral Assay

These recorded examples may help you get a feel for the data.
compound: COC(=O)C(C(=O)C(=O)Nc1nc(=S)[nH][nH]1)c1csc(N)n1 (configuration not stated)
reported value: > 724 µM
--
compound: Cc1cccc2c(N)c3cccc(C(=O)NCCCNCCN)c3nc12
reported value: > 0.2 µM

Query string: For the compound NNC(=O)CCc1c[nH]c2ccccc12 , what EC50 is on record?
Result string: > 1230 µM

Query string: For the compound COC1=CC(=O)NCCN1 , what EC50 is on record?
Result string: 135 µM

Query string: For the compound CC1=C(C(=O)Nc2ccc([N+](=O)[O-])cc2)C(c2ccccc2F)C(C(=O)Nc2ccc([N+](=O)[O-])cc2)=C(C)N1 , what EC50 is on record?
Result string: > 13.5 µM

Query string: For the compound O=C1CC(=O)N(C=C2C(=O)NC(=O)NC2=O)C(=S)N1 , what EC50 is on record?
Result string: > 200 µM

Query string: For the compound Nc1nc(N)c2nc(CNc3ccc(C(=O)NC(CCC(=O)O)C(=O)O)cc3F)cnc2n1 (configuration not stated) , what EC50 is on record?
Result string: > 200 µM

Query string: For the compound O=C(CC(=O)c1cccc([N+](=O)[O-])c1)C(=O)Nc1ccccc1 , what EC50 is on record?
Result string: > 417 µM

Query string: For the compound CC1(O)[C@@H]2O[C@@H]2C2(CCCO2)[C@@H]2O[C@@H]21 (some centres not stated) , what EC50 is on record?
Result string: > 200 µM

Query string: For the compound Cc1nc2c(=S)[nH]ncc2[nH]1 , what EC50 is on record?
Result string: > 200 µM

Query string: For the compound CC(CO)(CO)N1C(=O)c2cccc3cc([N+](=O)[O-])cc(c23)C1=O , what EC50 is on record?
Result string: > 200 µM

Query string: For the compound O=C(Cn1c2c(c3ccccc31)CCCC2)NC1CCCCC1 , what EC50 is on record?
Result string: > 200 µM

Values were extracted from PubChem BioAssay AID179.
